Kindly supply the reported Ki values for the records listed here.
Molecular target: human carbonic anhydrase CA IX (Homo sapiens)
Assay: hCA inhibition, stopped-flow CO2 hydration method, CA IX
Conditions: Ki for targeted CAs, IX, mean from three assays, errors ±5–10%
One number for each entry, in µM.

CN1c2c(O)nn(CC(=O)Nc3cccc(Cl)c3)c2-c2ccccc2S1(=O)=O [Compound 7b] : 72.9

Suppose we examine the compound CN1c2c(O)nn(CC(=O)Nc3ccc(Br)cc3)c2-c2ccccc2S1(=O)=O [Compound 7h] ; what Ki value has been reported? 90.8

====

Test: Single-dose MTT cell viability assay
Format: cell-based, human
Details: human, HCT-116 cells (ATCC CCL-247), 48 h, 0.1% DMSO control = 100%, value (SD)
Kindly supply the reported viability at 48 h, 10 µM values for the records listed here.
Answers are plain numbers, in %.

CN1c2c(O)nn(CC(=O)Nc3cccc(Cl)c3)c2-c2ccccc2S1(=O)=O : 88.9

// moving on: another record for viability at 48 h, 10 µM
Suppose we examine the compound Cc1cccc(NC(=O)COc2nn(CC(=O)Nc3cccc(C)c3C)c3c2N(C)S(=O)(=O)c2ccccc2-3)c1C ; what viability at 48 h, 10 µM value has been reported? 90.7

====

Molecular target: human carbonic anhydrase CA XII (Homo sapiens, UniProt O43570)
Sequence (O43570 25-354): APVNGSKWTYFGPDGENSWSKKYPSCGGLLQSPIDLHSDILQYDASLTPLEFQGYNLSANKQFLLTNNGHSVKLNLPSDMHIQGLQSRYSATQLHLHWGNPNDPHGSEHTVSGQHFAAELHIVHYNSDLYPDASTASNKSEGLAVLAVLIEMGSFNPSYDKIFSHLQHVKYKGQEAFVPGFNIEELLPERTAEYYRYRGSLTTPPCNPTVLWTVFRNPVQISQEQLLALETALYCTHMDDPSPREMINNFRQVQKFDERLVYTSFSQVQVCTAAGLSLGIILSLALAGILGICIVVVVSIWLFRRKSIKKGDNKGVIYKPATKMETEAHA
Test: hCA inhibition, stopped-flow CO2 hydration method, CA XII
Settings: Ki for targeted CAs, XII, mean from three assays, errors ±5–10%
MEASURE NAME: Ki (µM)
Give bare numbers, in µM.

CN1c2c(O)nn(CC(=O)Nc3ccc(Br)cc3)c2-c2ccccc2S1(=O)=O : 91.7

Suppose we examine the compound CN1c2c(O)nn(CC(=O)Nc3cccc(Cl)c3)c2-c2ccccc2S1(=O)=O ; what Ki value has been reported? 77.4

====

Kindly supply the reported percent survival of S. aureus at 125 µg/mL values for the records listed here.
Test system: Staphylococcus aureus (ATCC 25923)
Assay: Microbroth single-dose antimicrobial assay, susceptible S. aureus
Format: cell-based
Conditions: Staphylococcus aureus, ATCC25923; single dose 125 μg/mL; S. aureus ATCC 25923; value (SD)
Answers are plain numbers, in %.

CN1c2c(O)nn(CC(=O)Nc3ccc(Br)cc3)c2-c2ccccc2S1(=O)=O : 16.7

// moving on: another record for percent survival of S. aureus at 125 µg/mL
Suppose we examine the compound CN1c2c(O)nn(CC(=O)Nc3cccc(Cl)c3)c2-c2ccccc2S1(=O)=O ; what percent survival of S. aureus at 125 µg/mL value has been reported? 37.2

====

Target: human carbonic anhydrase CA II (Homo sapiens, UniProt P00918)
Experiment: hCA inhibition, stopped-flow CO2 hydration method, CA II
Conditions: Ki for targeted CAs, II, mean from three assays, errors ±5–10%
Kindly supply the reported pKi values for the records listed here.
Numbers only, as −log10 of the molar value.

CN1c2c(O)nn(CC(=O)Nc3cccc(Cl)c3)c2-c2ccccc2S1(=O)=O : 4.04

Suppose we examine the compound CN1c2c(O)nn(CC(=O)Nc3ccc(Br)cc3)c2-c2ccccc2S1(=O)=O ; what pKi value has been reported? 4.02

====

Kindly supply the reported pKi values for the records listed here.
Biological target: human carbonic anhydrase CA XII (Homo sapiens)
Assay: hCA inhibition, stopped-flow CO2 hydration method, CA XII
Settings: read-out: Ki for targeted CAs, XII; mean from three assays, errors ±5–10%
pKi: −log10 of the molar value.

CN1c2c(OCC(=O)Nc3ccc([N+](=O)[O-])cc3)nn(CC(=O)Nc3ccc([N+](=O)[O-])cc3)c2-c2ccccc2S1(=O)=O [Compound 7i] : < 4.00
CN1c2c(O)nn(CC(=O)NCc3ccccc3)c2-c2ccccc2S1(=O)=O [Compound 7f] : 4.10
CN1c2c(O)nn(CC(=O)Nc3ccc(Cl)cc3)c2-c2ccccc2S1(=O)=O [Compound 7a] : 4.04
CN1c2c(OCC(=O)NC3CCCCC3)nn(CC(=O)NC3CCCCC3)c2-c2ccccc2S1(=O)=O [Compound 7n] : < 4.00
Cc1ccc(NC(=O)COc2nn(CC(=O)Nc3ccc(C)cc3)c3c2N(C)S(=O)(=O)c2ccccc2-3)cc1 [Compound 7m] : < 4.00

Suppose we examine the molecule Cc1ccccc1NC(=O)COc1nn(CC(=O)Nc2ccccc2C)c2c1N(C)S(=O)(=O)c1ccccc1-2 [Compound 7l] ; what pKi value has been reported? < 4.00
